System: PEG-3
Assay: Peg3 promoter luciferase inhibitors, potency, dose response, cell-based, HeLa, CREF/GAPDH counter-screen panel (AID 624167)
Settings: HeLa PEG-Prom luciferase reporter, overnight, CREF/GAPDH counter-screens, run 1, dose range 1, individual replicate IC50 per panel
measured property: pIC50
Numbers only, as −log10 of the molar value.

Recorded pIC50, per entry:
CC(=O)c1sc2c(c1OC(=O)c1ccc(Cl)cc1Cl)c(=O)n(-c1ccccc1)c(=S)n2-c1ccccc1 : 4.95
COc1cc(CNCCCN2CCOCC2)cc(Br)c1OCc1ccc(Cl)cc1 : 5.02
CCOc1ccc2c(ccc(/C=C/c3cc(C)c4cccnc4c3O)[n+]2C)c1 : 5.37
CC(NS(=O)(=O)OCC(Cl)(Cl)Cl)c1ccc(C(C)(C)C)cc1 (stereo not given) : 4.42

Inquiry: # lookup: pIC50 of O=C(NC1=C(NC2CCS(=O)(=O)C2)C(=O)c2ccccc2C1=O)c1ccccc1 (stereo not given)
Reply text: 4.72

----------
Test system: GAPDH
Test: Peg3 promoter luciferase inhibitors, potency, dose response, cell-based, HeLa, CREF/GAPDH counter-screen panel (AID 624167)
Settings: CREF/GAPDH counter-screens, run 1, dose range 1, individual replicate IC50 per panel
Assign IC50 to each entry below.

Recorded IC50, per entry:
C=Cc1cc(OC)c2c(c1)c(=O)oc1c2cc(OC)c2c(O)ccc(C3OC(C)C(O)C(C)(O)C3O)c21 (stereo not given) : > 100 µM
COc1cc(/C=C2\SC(=Nc3ccccc3OC)NC2=O)ccc1O : > 100 µM
O=C(CCSc1nc2ccccc2s1)N/N=C/c1c(O)ccc2ccccc12 : > 100 µM
COc1ccc(NC(=O)c2cc(-c3ccccn3)nc3ccccc23)cc1S(=O)(=O)N(C)C : > 100 µM

// switching to the query compound
Inquiry: # lookup: IC50 of CC(=O)OC1(C)CC(C)C(=O)C(C(O)CC2CC(=O)NC(=O)C2)C1 (stereo not given)
Reply text: < 0.2 µM

----------
Assign pIC50 to each entry below.
Test system: Rat fibroblasts (CREF)
Test: Peg3 promoter luciferase inhibitors, potency, dose response, cell-based, HeLa, CREF/GAPDH counter-screen panel (AID 624167)
Conditions: CREF/GAPDH counter-screens, run 2, dose range 1, individual replicate IC50 per panel
One number for each entry, as −log10 of the molar value.

Recorded pIC50, per entry:
CCc1ccc(C(=O)Nc2nc3ccccc3[nH]2)cc1 : 6.18
Cc1ccc(C(=O)Nc2cnc3ccccc3c2)cc1 : 5.37
O=C(CCn1cnc(-c2ccccc2)c1-c1ccccc1)N/N=C/c1ccccc1O : 4.58
COc1ccc(/C=C2/CCCC(CN(C)C)C2=O)cc1 (centres undefined) : 4.47

Please report pIC50 for every entry that follows.
1. Cc1ccc(C)c(S(=O)(=O)N2CCN(c3ncnc4sccc34)CC2)c1
2. COC(=O)c1c(N)sc(C(=O)NCCc2ccccc2)c1C
3. COC1=C(Br)C(=O)c2ncccc2C1=O
4. O=C1CCCCC1Sc1nnc(-c2ccc3c(c2)OCO3)o1 (centres undefined)
5. Cc1nc(SCC(=O)Nc2nc3ccccc3s2)c(C#N)c(C)c1C
6. Cc1ccccc1-c1nc(-c2ccccn2)no1
7. COc1cc(Nc2c3ccccc3nc3ccccc23)cc(OC)c1OC

Reply text:
1. 4.76
2. 5.47
3. 4.71
4. 5.13
5. 4.81
6. 5.80
7. 4.34

Please report pIC50 for every entry that follows.
1. Oc1c(Br)cc(Br)c2cccnc12
2. O=c1c2ccccc2sc2ccc(C#CC3(O)CCCCC3)cc12
3. COc1cccc2nc3c(C(=O)NCCN(C)C)cccc3cc12
4. COc1ccccc1C(=O)Nc1nc2ccccc2s1
5. CCOc1ccc(OCc2cccc(C(=O)O)c2)cc1
6. CC(C)Cc1ccc(C(C)C(N)=NCCc2ccccc2)cc1 (centres undefined)

Reply text:
1: 5.20; 2: 5.64; 3: 5.26; 4: 6.20; 5: 5.44; 6: 4.93

Please report pIC50 for every entry that follows.
1. Cc1nc2cc(-c3ccccc3)sc2c(=O)n1N
2. O=C(NCCc1ccccc1F)c1ccc2c(c1)OCCO2
3. CCCS(=O)(=O)c1cnc(C2COc3ccccc3O2)nc1N (centres undefined)
4. Brc1ccc(N/N=C(/N=Nc2nn[nH]n2)c2ccccc2)cc1
5. CCCSc1ccc2nc(-c3ccccc3)cn2c1
6. O=C(Nc1ccc([N+](=O)[O-])cc1)C(=O)Nc1cccc(C(=O)O)c1

Reply text:
1: 5.54; 2: 5.89; 3: 4.90; 4: 4.98; 5: 5.69; 6: 5.52

Please report pIC50 for every entry that follows.
1. O=C(CCl)Nc1ccccc1Sc1ccc(Cl)cc1
2. C[C@@H]1C[C@@H]([C@H](O)CC2CC(=O)NC(=O)C2)C(=O)[C@@H](C)C1
3. O=C(CNc1ccccc1)N/N=C/c1c(O)ccc2ccccc12
4. COc1ccccc1C(=O)Nc1nc2ccccc2[nH]1
5. O=C(O)c1cccc(COc2ccc3c(c2)CCC3)c1
6. CCOc1ccc(-c2ccc(SC)nn2)cc1
7. O=C1C=CC(=O)N1c1ccc(-c2nc3ccccc3o2)cc1

Reply text:
1: 5.09; 2: 4.84; 3: 4.35; 4: 6.47; 5: 5.00; 6: 6.20; 7: 4.70

----------
System: PEG-3
Assay: Peg3 promoter luciferase inhibitors, potency, dose response, cell-based, HeLa, CREF/GAPDH counter-screen panel (AID 624167)
Conditions: HeLa PEG-Prom luciferase reporter, overnight, CREF/GAPDH counter-screens, run 1, dose range 1, individual replicate IC50 per panel
measured property: pIC50
Answers are plain numbers, as −log10 of the molar value.

Recorded pIC50, per entry:
Cc1cccc(CN2C(=O)[C@H]3Cc4c([nH]c5ccccc45)C(C)(C)N3C2=O)c1 : 4.52
c1ccc(CN2CCC(Nc3nc(-c4cccnc4)nc4ccccc34)CC2)cc1 : 4.69
O=C(Nc1nc2cc3c(cc2s1)OCCO3)c1ccco1 : 5.76
CN(C)CCNc1ccc(CO)c2oc3ccc(O)cc3c(=O)c12 : 4.69
Cc1cnc(NC(=O)c2ccc3c(c2)OCCO3)s1 : 6.19
NC1=C(Br)C(=O)c2ncccc2C1=O : 5.48

Please report pIC50 for every entry that follows.
1. CC1CC(C)C(=O)C(C(CC2CC(=O)NC(=O)C2)OC(=O)CC(=O)c2ccccc2)C1 (centres undefined)
2. CC(=O)n1cc(N(C(=O)CCl)c2ccc(C)cc2)c2ccccc21
3. CC1CCCN(c2ncnc3c2cnn3-c2ccc(Cl)cc2)C1 (centres undefined)
4. C(=NNc1ccc2ccccc2n1)c1ccccn1
5. COc1cccc(/C=N/NC(=O)c2c(C)nc3ccc(Cl)cn23)c1O
6. CCCCCCCn1c(=N)n(CC(O)c2ccco2)c2ccccc21 (centres undefined)

Reply text:
1: 5.75; 2: 4.95; 3: 5.22; 4: 5.92; 5: 6.00; 6: 4.66

Please report pIC50 for every entry that follows.
1. O=[N+]([O-])c1ccc(S(=O)(=O)c2ccccc2)nc1
2. Cc1cc2c(c(/C=C/C(=O)c3ccccc3)c1)OC1(C=C2)Oc2ccccc2C(=O)N1C (centres undefined)
3. CCOc1ccc(C(=O)O/N=C(\N)c2ccccn2)cc1
4. NC(C(=O)O)C1ON=C(Cl)C1O (centres undefined)

Reply text:
1. 5.02
2. 4.69
3. 5.30
4. 6.19

Please report pIC50 for every entry that follows.
1. COc1ccccc1C(=O)Nc1nc2ccccc2[nH]1
2. Cc1c(C#N)c(N)nc2c3c(sc12)NC(=O)CC3c1ccc(Cl)cc1 (centres undefined)
3. COc1ccc(/C=C2\SC(=S)N(CCCC(=O)NNC(=O)c3ccccc3O)C2=O)cc1

Reply text:
1: 6.15; 2: 4.76; 3: 5.20

Please report pIC50 for every entry that follows.
1. COc1ccc(C(=O)Nc2nc3ccccc3s2)c(OC)c1
2. O=C(Nc1ncc([N+](=O)[O-])s1)c1ccc2c(c1)OCO2
3. O=C(N/N=C/c1cccs1)c1n[nH]c2c1CCCC2
4. Cc1cc(C(=O)COC(=O)c2ccccc2O)c(C)n1Cc1cccs1

Reply text:
5.59
5.70
5.46
5.75

----------
Target: UniProt Q6IN02
Sequence (Q6IN02 whole entry, looked up): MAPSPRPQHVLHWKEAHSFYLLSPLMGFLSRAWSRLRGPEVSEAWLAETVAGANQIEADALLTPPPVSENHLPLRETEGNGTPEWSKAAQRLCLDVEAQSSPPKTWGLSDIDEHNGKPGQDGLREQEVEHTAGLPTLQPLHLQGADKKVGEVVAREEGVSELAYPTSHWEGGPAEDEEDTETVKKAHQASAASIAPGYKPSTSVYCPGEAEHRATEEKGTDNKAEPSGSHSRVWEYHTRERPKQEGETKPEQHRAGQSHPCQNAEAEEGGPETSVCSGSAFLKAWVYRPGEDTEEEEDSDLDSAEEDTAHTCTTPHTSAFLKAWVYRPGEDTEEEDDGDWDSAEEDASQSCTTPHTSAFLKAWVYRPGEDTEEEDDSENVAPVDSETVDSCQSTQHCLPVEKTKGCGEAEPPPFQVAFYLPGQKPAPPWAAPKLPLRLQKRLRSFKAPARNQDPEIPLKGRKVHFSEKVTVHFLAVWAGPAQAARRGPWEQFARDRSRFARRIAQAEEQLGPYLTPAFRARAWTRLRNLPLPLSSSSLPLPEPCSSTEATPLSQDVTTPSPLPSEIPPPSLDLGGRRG
Assay: Peg3 promoter luciferase inhibitors, potency, dose response, cell-based, HeLa, CREF/GAPDH counter-screen panel (AID 624167)
Conditions: HeLa PEG-Prom luciferase reporter, overnight, CREF/GAPDH counter-screens, mean of runs
The source made the active and inactive calls.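 How the source made its calls: active means mean IC50 for reducing PEG3 promoter reporter signal at or below a set limit, with IC50 above the limit in both counter screens; inactive means the rest, including counter screen hits.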
measured property: IC50

Cc1cc(C(=O)COC(=O)C2=COCCO2)c(C)n1-c1ccccc1 : 11.8 µM
CCc1ccc(OCCNc2cc(N3CCNC(C)C3)ccc2[N+](=O)[O-])cc1 (stereo not given) : 12.7 µM
CCOc1cc(/C=N/Nc2nc(-c3cccc(S(=O)(=O)N4CCCC4)c3)cs2)ccc1O : inactive
CN(C)c1ccc(/C=C/c2nc3ccccc3s2)cc1 : 6.12 µM
CCOc1ccc(NC(=O)Nc2cccc(C(=O)O)c2)cc1 : 3.24 µM

Please report IC50 for every entry that follows.
1. Cc1ccc(-c2nc(-c3ccccn3)no2)cc1Cl
2. CC(=O)c1ccc(Nc2cc(C)nc3ccc(C)cc23)cc1
3. COc1ccc(NS(=O)(=O)c2ccc3ccccc3c2)c2ncccc12

Reply text:
1. 1.64 µM
2. 13.3 µM
3. 17.6 µM

Please report IC50 for every entry that follows.
1. CN1CCN(CCNC(=O)c2ccc3nc(-c4ccc(F)cc4)c(-c4ccc(F)cc4)nc3c2)CC1
2. CC(=O)c1sc2c(c1OC(=O)c1ccc(Cl)cc1Cl)c(=O)n(-c1ccccc1)c(=S)n2-c1ccccc1
3. CCc1ccc(C(=O)Nc2nc3ccccc3[nH]2)cc1
4. CC(=O)NC(c1ccc(Cl)cc1Cl)c1ccc2cccnc2c1O (stereo not given)

Reply text:
["15.4 µM", "10.2 µM", "2.59 µM", "1.77 µM"]

Please report IC50 for every entry that follows.
1. O=S(=O)(N[C@H]1C[C@@H](NS(=O)(=O)OCC(Cl)(Cl)Cl)C2CCCCC21)OCC(Cl)(Cl)Cl (stereo not given in full)
2. CN(O)C(=S)c1ccccc1
3. CCCC(=O)NC(c1ccc(N(C)C)cc1)c1ccc2cccnc2c1O (stereo not given)

Reply text:
1. 12.5 µM
2. inactive
3. 1.75 µM

Measured values drawn from PubChem BioAssay AID624167 for this set.
